Provenance of the data: ChEMBL document CHEMBL1201862

# System: Carboxy-terminal domain RNA polymerase II polypeptide A small phosphatase 1 (Homo sapiens)
# Sequence (Q9GZU7 whole entry, the tested form may be a part): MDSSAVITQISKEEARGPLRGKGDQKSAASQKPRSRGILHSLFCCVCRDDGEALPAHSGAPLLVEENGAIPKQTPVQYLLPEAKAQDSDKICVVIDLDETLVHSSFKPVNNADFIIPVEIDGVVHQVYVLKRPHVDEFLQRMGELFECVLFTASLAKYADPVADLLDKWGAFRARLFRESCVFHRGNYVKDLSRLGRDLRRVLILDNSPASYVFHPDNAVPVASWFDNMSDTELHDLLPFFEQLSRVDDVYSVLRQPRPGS
# Test Protocol: inhibitors of CTDSP1, concentration-response testing, biochemical assay, absorbance-based, actives from ultra-high-throughput screening (AID 540297)
# Format: functional
The source made the active and inactive calls. Cut-off read from the data, not from the text of the source: actives have a measured IC50 and inactives only a lower limit.
IC50 values for the compounds below.

>  <Smiles Str>
Cc1ccc(Cl)cc1NC(=O)CSc1sc2c(O)cc(O)nc2c1C#N

>  <System>
Carboxy-terminal domain RNA polymerase II polypeptide A small phosphatase 1 (Homo sapiens)

>  <IC50>
4.49 µM (active)

$$$$

Continue with the compound presented below.
Please look up its IC50: `O=C(O)c1cccc2c1C(=O)N(c1ccc3c(c1)Cc1ccccc1-3)C2=O`
7.59 µM (active)
